# target-entity: T1, human GIP receptor (human, UniProt P48546 22-466)
# T1 sequence (looked up): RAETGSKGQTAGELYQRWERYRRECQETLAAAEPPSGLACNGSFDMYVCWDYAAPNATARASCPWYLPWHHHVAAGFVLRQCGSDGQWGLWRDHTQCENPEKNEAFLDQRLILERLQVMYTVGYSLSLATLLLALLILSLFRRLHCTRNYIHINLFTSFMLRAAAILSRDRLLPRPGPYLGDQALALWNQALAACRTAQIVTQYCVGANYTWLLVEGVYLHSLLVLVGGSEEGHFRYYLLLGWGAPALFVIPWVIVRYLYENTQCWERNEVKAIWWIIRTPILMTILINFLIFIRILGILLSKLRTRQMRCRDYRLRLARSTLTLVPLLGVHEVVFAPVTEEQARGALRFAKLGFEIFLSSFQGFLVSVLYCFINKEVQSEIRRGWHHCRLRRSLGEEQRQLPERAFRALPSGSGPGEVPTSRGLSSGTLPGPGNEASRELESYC
# assay-remarks: cell-based or functional assay
Bridges are numbered along the chain shown (N, C = ends). Where no end group is shown, it is not given here. [ ]: non-standard residue; d: D form. Aib = CC(C)(N)C(=O)O
readout: in vitro Activity Compared to Native Peptide (%), vs GIP
Number only, in %; omit the unit.

Tell me its in vitro Activity Compared to Native Peptide (%), vs GIP given Y[Aib]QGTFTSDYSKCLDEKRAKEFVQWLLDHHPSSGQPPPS-NH2 (bridge 16-20) [triple agonist of SEQ ID NO: 22] as the entry.
59.7

Tell me its in vitro Activity Compared to Native Peptide (%), vs GIP given Y[Aib]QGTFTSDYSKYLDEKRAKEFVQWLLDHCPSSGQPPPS-NH2 (bridge 16-20) [triple agonist of SEQ ID NO: 96] as the entry.
5.2
